All figures here come from patent US11254696B2.

Known microsomal CLint at 1 μM of a selection of compounds
method: Metabolic stability in human liver microsomes
Type: in vitro ADME
details: pH 7.4, 1 μM compound, 0.5 mg/mL protein, read-out: CLint (uL/min/mg), Human liver microsome experiment
Expressed in µL/min/mg, but write only the number.

Known results for compounds:
The reported value for COc1cc(CCN)ccc1Nc1ncc(Cl)c(Nc2ccccc2P(C)(C)=O)n1 in terms of microsomal CLint at 1 μM is 8.7

The reported value for CNCCc1cc(OC)c(Nc2ncc(Cl)c(Nc3ccccc3P(C)(C)=O)n2)cc1C in terms of microsomal CLint at 1 μM is 27.7

The reported value for CNC(C)(C)c1ccc(Nc2ncc(Cl)c(Nc3ccccc3P(C)(C)=O)n2)c(OC)c1 in terms of microsomal CLint at 1 μM is 20.7

Continuing:
The reported value for COc1cc(C(C)(C)CN(C)C)ccc1Nc1ncc(Cl)c(Nc2ccccc2P(C)(C)=O)n1 in terms of microsomal CLint at 1 μM is 73.5

The reported value for COc1cc(CN(C)C)ccc1Nc1ncc(Cl)c(Nc2ccccc2P(C)(C)=O)n1 in terms of microsomal CLint at 1 μM is 10.6

The reported value for COc1cc(CCN(C)C)c(C)cc1Nc1ncc(Cl)c(Nc2ccccc2P(C)(C)=O)n1 in terms of microsomal CLint at 1 μM is 5.4

The reported value for COc1cc(CCN2CCCCC2)ccc1Nc1ncc(Cl)c(Nc2ccccc2P(C)(C)=O)n1 in terms of microsomal CLint at 1 μM is 26.7

The reported value for COc1cc(CCN2CCOCC2)ccc1Nc1ncc(Cl)c(Nc2ccccc2P(C)(C)=O)n1 in terms of microsomal CLint at 1 μM is 29.1

----------
method: Metabolic stability in human liver microsomes
Type: in vitro ADME
details: pH 7.4, 1 μM compound, 0.5 mg/mL protein, read-out: t1/2 (min), Human liver microsome experiment
Please respond with rule met when measured half-life at 1 μM is strictly beneath 80 min, and with rule not met in all other cases.

Use these answered entries as a reference point.
Exercise: Identify whether the molecule COc1cc(C(C)(C)CN(C)C)ccc1Nc1ncc(Cl)c(Nc2ccccc2P(C)(C)=O)n1 records half-life at 1 μM below 80 min.
Solution: rule met

Exercise: Identify whether the molecule CNC(C)(C)c1ccc(Nc2ncc(Cl)c(Nc3ccccc3P(C)(C)=O)n2)c(OC)c1 records half-life at 1 μM below 80 min.
Solution: rule met

Continuing:
Exercise: Identify whether the molecule COc1cc(CCN(C)C)c(C)cc1Nc1ncc(Cl)c(Nc2ccccc2P(C)(C)=O)n1 records half-life at 1 μM below 80 min.
Solution: rule not met

Exercise: Identify whether the molecule COc1cc(C(C)(C)CN)ccc1Nc1ncc(Cl)c(Nc2ccccc2P(C)(C)=O)n1 records half-life at 1 μM below 80 min.
Solution: rule met

Exercise: Identify whether the molecule COc1cc(CCN(C)C)ccc1Nc1ncc(Cl)c(Nc2ccccc2P(C)(C)=O)n1 records half-life at 1 μM below 80 min.
Solution: rule not met

Exercise: Identify whether the molecule COc1cc(CCN2CCOCC2)ccc1Nc1ncc(Cl)c(Nc2ccccc2P(C)(C)=O)n1 records half-life at 1 μM below 80 min.
Solution: rule met

Exercise: Identify whether the molecule COc1cc(CN(C)C)ccc1Nc1ncc(Cl)c(Nc2ccccc2P(C)(C)=O)n1 records half-life at 1 μM below 80 min.
Solution: rule not met
